SUBJECT OF TEST: T1, Human BCMA (human, UniProt Q02223 1-54, limits assumed)
T1 construct: also called huBCMA; B-cell maturation antigen
T1 sequence (looked up): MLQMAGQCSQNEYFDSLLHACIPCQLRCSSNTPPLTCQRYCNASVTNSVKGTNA
ASSAY DETAILS: SPR, IgG immobilised, human BCMA analyte
Below: a set of entries, each annotated with reported koff.

BINDER	koff, s⁻¹
C01_Rd4_6nM_C12 (antibody, V domains shown, IgG; also called PC1C12) VH: EVQLLESGGGLVQPGGSLRLSCAASGFTFSSYPMSWVRQAPGKGLEWVSAIGGSGGWSYYADSVKGRFTISRDNSKNTLYLQMNSLRAEDTAVYYCARYWPMDSWGQGTLVTVSS VL: EIVLTQSPGTLSLSPGERATLSCWLSQSVSSTYLAWYQQKPGQAPRLLIYDASSRAPGIPDRFSGSGSGTDFTLTISRLEPEDFAVYYCQQYSEWPLTFGQGTKVEIK	0.00649
A02_Rd4_6nM_C23 (antibody, V domains shown, IgG) VH: EVQLLESGGGLVQPGGSLRLSCAASGFTFSSYAMNWVRQAPGKGLEWVSAISDSGGSGWYADSVKGRFTISRDNSKNTLYLQMNSLRAEDTAVYYCARYWPMSLWGQGTLVTVSS VL: EIVLTQSPGTLSLSPGERATLSCRASQSVSVEYLAWYQQKPGQAPRLLMYDASIRATGIPDRFSGSGSGTDFTLTISRLEPEDFAVYYCQQYARWPLTFGQGTKVEIK	0.000255
C01_Rd4_0.6nM_C27 (antibody, V domains shown, IgG) VH: EVQLLESGGGLVQPGGSLRLSCAASGFTFSSYPMSWVRQAPGKGLEWVSAIGGSGGSLPYADSVKGRFTISRDNSKNTLYLQMNSLRAEDTAVYYCARYWPMDSWGQGTLVTVSS VL: EIVLTQSPGTLSLSPGERATLSCRASQSVSSTYLAWYQQKPGQAPRLLIYDASSRAPGIPDRFSGSGSGTDFTLTISRLEPEDFAVYYCQQYSRWPLTFGQGTKVEIK	0.00374
COMBO_Rd4_0.6nM_C29 (antibody, V domains shown, IgG) VH: EVQLLESGGGLVQPGGSLRLSCAASGFTFSSYPMSWVRQAPGKGLEWVSAIGGSGGSLPYADSVKGRFTISRDNSKNTLYLQMNSLRAEDTAVYYCARYWPMDIWGQGTLVTVSS VL: EIVLTQSPGTLSLSPGERATLSCRASQSVSSSYLAWYQQKPGQAPRLLMYDASIRATGIPDRFSGSGSGTDFTLTISRLEPEDFAVYYCQQYQSWPLTFGQGTKVEIK	0.000277
COMBO_Rd4_6nM_C11 (antibody, V domains shown, IgG) VH: EVQLLESGGGLVQPGGSLRLSCAASGFTFSSYPMSWVRQAPGKGLEWVSAIGGSGGSLGYADSVKGRFTISRDNSKNTLYLQMNSLRAEDTAVYYCARYWPMDSWGQGTLVTVSS VL: EIVLTQSPGTLSLSPGERATLSCRASQSVSPLYLAWYQQKPGQAPRLLMYDASIRATGIPDRFSGSGSGTDFTLTISRLEPEDFAVYYCQQYKAWPLTFGQGTKVEIK	0.000124

Reference for the values: patent US20160297884A1
